Origin of measurements: patent US20170360791A1

# Assay type: physicochemical
# COND: canola oil, oil or lipid, thermodynamic from solid, solvent Canola oil; room temperature, >24 hours; read-out: Solubility
Counter-ions that a name gives are not always drawn.
MEASUREMENT NAME: solubility (µg/mL)
Hi! Could you send only the number? It should be in µg/mL, unit omitted.

Q: # lookup: solubility of S=C(NCc1ccc2c(c1)OCO2)N1CCN(c2ncnc3c2oc2ccccc23)CC1 [MP470.HCl, amuvatinib HCl]
Ans: 10

====

# Type: physicochemical
# COND: acetic acid, organic solvent or mixture, thermodynamic from solid, solvent Acetic acid; room temperature, >24 hours; read-out: Solubility
MEASUREMENT NAME: solubility (µg/mL)
Hi! Could you send only the number? It should be in µg/mL, unit omitted.

Q: # lookup: solubility of S=C(NCc1ccc2c(c1)OCO2)N1CCN(c2ncnc3c2oc2ccccc23)CC1
Ans: 2900

====

# Type: physicochemical
# COND: ethyl cinnamate, organic solvent or mixture, thermodynamic from solid, solvent Ethyl cinnamate; room temperature, >24 hours; read-out: Solubility
MEASUREMENT NAME: solubility (µg/mL)
Hi! Could you send only the number? It should be in µg/mL, unit omitted.

Q: # lookup: solubility of S=C(NCc1ccc2c(c1)OCO2)N1CCN(c2ncnc3c2oc2ccccc23)CC1
Ans: 3900

====

# Format: physicochemical
# COND: Capryol 90, oil or lipid, thermodynamic from solid, solvent Capryol 90; room temperature, >24 hours; read-out: Solubility
Counter-ions that a name gives are not always drawn.
MEASUREMENT NAME: solubility

Q: # lookup: solubility of S=C(NCc1ccc2c(c1)OCO2)N1CCN(c2ncnc3c2oc2ccccc23)CC1 [MP470.HCl, amuvatinib HCl]
Ans: 100 µg/mL

====

# Assay type: physicochemical
# COND: TPGS, aqueous with cosolvent or surfactant or cyclodextrin, thermodynamic from solid, solvent TPGS; room temperature, >24 hours; read-out: Solubility
MEASUREMENT NAME: solubility (µg/mL)
Hi! Could you send only the number? It should be in µg/mL, unit omitted.

Q: # lookup: solubility of S=C(NCc1ccc2c(c1)OCO2)N1CCN(c2ncnc3c2oc2ccccc23)CC1
Ans: 10000

====

# Assay type: physicochemical
# COND: ethanol, organic solvent or mixture, thermodynamic from solid, solvent Ethanol; room temperature, >24 hours; read-out: Solubility
MEASUREMENT NAME: solubility (µg/mL)
Hi! Could you send only the number? It should be in µg/mL, unit omitted.

Q: # lookup: solubility of S=C(NCc1ccc2c(c1)OCO2)N1CCN(c2ncnc3c2oc2ccccc23)CC1 [MP470 FB, amuvatinib]
Ans: 300

====

# Format: physicochemical
# COND: clove oil, oil or lipid, thermodynamic from solid, solvent Clove oil; room temperature, >24 hours; read-out: Solubility
# Experimental: The suspensions were filtered through 0.2 or 0.45 microm filters prior to HPLC analysis. Some filtrates were diluted with MeOH prior to the HPLC analysis.
Where a name gives a salt, the structure may show the parent alone.
MEASUREMENT NAME: solubility (µg/mL)
Hi! Could you send only the number? It should be in µg/mL, unit omitted.

Q: # lookup: solubility of S=C(NCc1ccc2c(c1)OCO2)N1CCN(c2ncnc3c2oc2ccccc23)CC1 [MP470.HCl, amuvatinib HCl]
Ans: 6700

====

# Format: physicochemical
# COND: Solutol HS 15, aqueous with cosolvent or surfactant or cyclodextrin, thermodynamic from solid, solvent Solutol HS 15; estimated by diluting the mixture in water 1/100 and then assaying the dilution; read-out: Solubility
Counter-ions that a name gives are not always drawn.
MEASUREMENT NAME: solubility (mg/mL)
Hi! Could you send only the number? It should be in mg/mL, unit omitted.

Q: # lookup: solubility of S=C(NCc1ccc2c(c1)OCO2)N1CCN(c2ncnc3c2oc2ccccc23)CC1 [MP470.HCl, amuvatinib HCl]
Ans: 6

====

# Format: physicochemical
# COND: Miglyol 829, oil or lipid, thermodynamic from solid, solvent Miglyol 829; room temperature, >24 hours; read-out: Solubility
Structures can show the parent of a compound that is named as a salt.
MEASUREMENT NAME: solubility
A complete answer gives the number and then names the unit.

Q: # lookup: solubility of S=C(NCc1ccc2c(c1)OCO2)N1CCN(c2ncnc3c2oc2ccccc23)CC1 [MP470.HCl, amuvatinib HCl]
Ans: 100 µg/mL

====

# Type: physicochemical
# COND: benzyl acetate, organic solvent or mixture, thermodynamic from solid, solvent Benzyl acetate; room temperature, >24 hours; read-out: Solubility
Structures can show the parent of a compound that is named as a salt.
MEASUREMENT NAME: solubility (mg/mL)
Hi! Could you send only the number? It should be in mg/mL, unit omitted.

Q: # lookup: solubility of S=C(NCc1ccc2c(c1)OCO2)N1CCN(c2ncnc3c2oc2ccccc23)CC1 [MP470.HCl, amuvatinib HCl]
Ans: 0.4

====

# Format: physicochemical
# COND: Labrafac CC, oil or lipid, thermodynamic from solid, solvent Labrafac CC; room temperature, >24 hours; read-out: Solubility
Where a name gives a salt, the structure may show the parent alone.
MEASUREMENT NAME: solubility (µg/mL)
Hi! Could you send only the number? It should be in µg/mL, unit omitted.

Q: # lookup: solubility of S=C(NCc1ccc2c(c1)OCO2)N1CCN(c2ncnc3c2oc2ccccc23)CC1 [MP470.HCl, amuvatinib HCl]
Ans: 50

====

# Type: physicochemical
# COND: anisole, organic solvent or mixture, thermodynamic from solid, solvent Anisole; room temperature, >24 hours; read-out: Solubility
MEASUREMENT NAME: solubility (µg/mL)
Hi! Could you send only the number? It should be in µg/mL, unit omitted.

Q: # lookup: solubility of S=C(NCc1ccc2c(c1)OCO2)N1CCN(c2ncnc3c2oc2ccccc23)CC1 [MP470 FB, amuvatinib]
Ans: 1800

====

# Type: physicochemical
# COND: oleic acid, oil or lipid, thermodynamic from solid, solvent Oleic acid; room temperature, >24 hours; read-out: Solubility
# Protocol: The suspensions were filtered through 0.2 or 0.45 microm filters prior to HPLC analysis. Some filtrates were diluted with MeOH prior to the HPLC analysis.
MEASUREMENT NAME: solubility (µg/mL)
Hi! Could you send only the number? It should be in µg/mL, unit omitted.

Q: # lookup: solubility of S=C(NCc1ccc2c(c1)OCO2)N1CCN(c2ncnc3c2oc2ccccc23)CC1
Ans: 100

====

# Format: physicochemical
# COND: propylene carbonate, organic solvent or mixture, thermodynamic from solid, solvent Propylene carbonate; room temperature, >24 hours; read-out: Solubility
MEASUREMENT NAME: solubility (µg/mL)
Hi! Could you send only the number? It should be in µg/mL, unit omitted.

Q: # lookup: solubility of S=C(NCc1ccc2c(c1)OCO2)N1CCN(c2ncnc3c2oc2ccccc23)CC1
Ans: 2900

====

# Type: physicochemical
# COND: ethyl acetate, organic solvent or mixture, thermodynamic from solid, solvent Ethyl acetate; room temperature, >24 hours; read-out: Solubility
Structures can show the parent of a compound that is named as a salt.
MEASUREMENT NAME: solubility (µg/mL)
Hi! Could you send only the number? It should be in µg/mL, unit omitted.

Q: # lookup: solubility of S=C(NCc1ccc2c(c1)OCO2)N1CCN(c2ncnc3c2oc2ccccc23)CC1 [MP470.HCl, amuvatinib HCl]
Ans: 50

====

# Type: physicochemical
# COND: Peceol, oil or lipid, thermodynamic from solid, solvent Peceol; room temperature, >24 hours; read-out: Solubility
Structures can show the parent of a compound that is named as a salt.
MEASUREMENT NAME: solubility (µg/mL)
Hi! Could you send only the number? It should be in µg/mL, unit omitted.

Q: # lookup: solubility of S=C(NCc1ccc2c(c1)OCO2)N1CCN(c2ncnc3c2oc2ccccc23)CC1 [MP470.HCl, amuvatinib HCl]
Ans: 200

====

# Type: physicochemical
# COND: peanut oil, oil or lipid, thermodynamic from solid, solvent Peanut oil; room temperature, >24 hours; read-out: Solubility
Counter-ions that a name gives are not always drawn.
MEASUREMENT NAME: solubility
A complete answer gives the number and then names the unit.

Q: # lookup: solubility of S=C(NCc1ccc2c(c1)OCO2)N1CCN(c2ncnc3c2oc2ccccc23)CC1 [MP470.HCl, amuvatinib HCl]
Ans: 10 µg/mL
